Test system: 5′-d(AAAAAAAAAAAAAA)-3′
experimentDescription: Tm of duplex (spectrophotometric melting curves)
Assay type: binding
experimentalSetup: vs 5′-d(AAAAAAAAAAAAAA)-3′; 10 mM Na2HPO4 pH 7.0, 100 mM NaCl, 0.1 mM EDTA
Protocol: Thermostability of oligonucleotides containing monomers of formula V, X, Y and Z^T, Z^U, Z^G, Z^C, Z^A, Z^MeC. The thermostability of the LNA modified oligonucleotides were determined spectrophotometrically using a spectrophotometer equipped with a thermoregulated Peltier element. […]
Strand notation (5' to 3'): a small letter for the sugar, then the base; units joined by * are phosphorothioate-linked, units joined directly phosphodiester-linked; [ ] holds rarer units or linkages, { } end groups; capitals alone tell only the bases. X = bicyclic LNA-type nucleotide of structure X in the publication's (LNA marked in bold); V = LNA monomer of structure V, bold; l = locked nucleic acid (LNA); d = 2'-deoxy (DNA)

substance: 5′-d(TTTTTTTTTTTTTT)-3′ (SEQ ID NO: 86): partly modified poly-T oligonucleotide with Z^T (46, 47) (DNA dTdTdTdTdTdTlTlTdTdTdTdTdTdT)
Tm (° C.) Na2HPO4/NaCl/EDTA [°C]: 34

substance: 5′-d(TTTTTTTTTTTTTT)-3′ (SEQ ID NO: 107): partly modified poly-T with monomer V (sugars from the 5' end d5 V4 d5, backbone not given here)
Tm (° C.) Na2HPO4/NaCl/EDTA [°C]: 23

substance: 5′-d(TTTTTTTTTTTTTT)-3′ (SEQ ID NO: 80): unmodified poly-T oligonucleotide (Table 1, 42 and 43) (unmodified DNA) [reference compound]
Tm (° C.) Na2HPO4/NaCl/EDTA [°C]: 36

substance: 5′-d(TTTTTTTTTTTTTT)-3′ (SEQ ID NO: 120): poly-T containing X^T (sugars from the 5' end d6 X2 d6, backbone not given here)
Tm (° C.) Na2HPO4/NaCl/EDTA [°C]: 19

substance: 5′-d(TTTTTTTTTTTTTT)-3′ (SEQ ID NO: 83): partly modified poly-T oligonucleotide with Z^T (44, 45) (DNA dTdTdTdTdTdTlTdTdTdTdTdTdTdT)
Tm (° C.) Na2HPO4/NaCl/EDTA [°C]: 36

###

Test system: 5′-(AAAAAAAAAAAAAA)-3′
experimentDescription: Tm of duplex (spectrophotometric melting curves)
Type: binding
experimentalSetup: vs RNA 5′-(AAAAAAAAAAAAAA)-3′; 10 mM Na2HPO4 pH 7.0, 100 mM NaCl, 0.1 mM EDTA
V = LNA monomer of structure V, bold; X = bicyclic LNA-type nucleotide of structure X in the publication's (LNA marked in bold); Y = LNA-type bicyclic nucleoside of structure Y of the publication, thymine base; d = 2'-deoxy (DNA)
endpointLabel: Tm (° C.) Na2HPO4/NaCl/EDTA (°C)

substance: 5′-d(TTTTTTTTTTTTTT)-3′ (SEQ ID NO: 104): partly modified poly-T with monomer V (sugars from the 5' end d6 V1 d1 V1 d5, backbone not given here)
studyTarget: 5′-(AAAAAAAAAAAAAA)-3′
measuredResult: 23
--
substance: 5′-d(TTTTTTTTTTTTTT)-3′ (SEQ ID NO: 144): fully modified poly-T oligonucleotide of structure Y (sugars from the 5' end Y13 d1, backbone not given here)
studyTarget: 5′-(AAAAAAAAAAAAAA)-3′
measuredResult: 58
--
substance: 5′-d(TTTTTTTTTTTTTT)-3′ (SEQ ID NO: 113): fully modified poly-T oligonucleotide of structure V (sugars from the 5' end V13 d1, backbone not given here)
studyTarget: 5′-(AAAAAAAAAAAAAA)-3′
measuredResult: 42
--
substance: 5′-d(TTTTTTTTTTTTTT)-3′ (SEQ ID NO: 126): poly-T containing X^T (sugars from the 5' end d5 X4 d5, backbone not given here)
studyTarget: 5′-(AAAAAAAAAAAAAA)-3′
measuredResult: 14
--
substance: 5′-d(TTTTTTTTTTTTTT)-3′ (SEQ ID NO: 98): partly modified poly-T with monomer V (sugars from the 5' end d7 V1 d6, backbone not given here)
studyTarget: 5′-(AAAAAAAAAAAAAA)-3′
measuredResult: 27

###

Tm (° C.) Na2HPO4/NaCl/EDTA listing for selected substances.
Tested on: 5′-d(AAAAAAAAAAAAAA)-3′
experimentDescription: Tm of duplex (spectrophotometric melting curves)
Type: binding
experimentalSetup: vs 5′-d(AAAAAAAAAAAAAA)-3′; 10 mM Na2HPO4 pH 7.0, 100 mM NaCl, 0.1 mM EDTA
Strand notation (5' to 3'): a small letter for the sugar, then the base; units joined by * are phosphorothioate-linked, units joined directly phosphodiester-linked; [ ] holds rarer units or linkages, { } end groups; capitals alone tell only the bases. X = bicyclic LNA-type nucleotide of structure X in the publication's (LNA marked in bold); Y = bicyclic LNA-type thymidine monomer of structure Y; V = LNA monomer of structure V, bold; l = locked nucleic acid (LNA); d = 2'-deoxy (DNA)
endpointLabel: Tm (° C.) Na2HPO4/NaCl/EDTA (°C)

substance: 5′-d(TTTTTTTTTTTTTT)-3′ (SEQ ID NO: 129): partly modified poly-T with monomer Y (sugars from the 5' end d7 Y1 d6, backbone not given here)
studyTarget: 5′-d(AAAAAAAAAAAAAA)-3′
unitsLabel: °C
measuredResult: 36
--
substance: 5′-d(TTTTTTTTTTTTTT)-3′ (SEQ ID NO: 89): partly modified poly-T oligonucleotide with Z^T (48, 49) (DNA dTdTdTdTdTlTlTlTlTdTdTdTdTdT)
studyTarget: 5′-d(AAAAAAAAAAAAAA)-3′
unitsLabel: °C
measuredResult: 42
--
substance: 5′-d(TTTTTTTTTTTTTT)-3′ (SEQ ID NO: 104): partly modified poly-T with monomer V (sugars from the 5' end d6 V1 d1 V1 d5, backbone not given here)
studyTarget: 5′-d(AAAAAAAAAAAAAA)-3′
unitsLabel: °C
measuredResult: 30
--
substance: 5′-d(TTTTTTTTTTTTTT)-3′ (SEQ ID NO: 135): partly modified poly-T with monomer Y (sugars from the 5' end d6 Y1 d1 Y1 d5, backbone not given here)
studyTarget: 5′-d(AAAAAAAAAAAAAA)-3′
unitsLabel: °C
measuredResult: 35
--
substance: 5′-d(TTTTTTTTTTTTTT)-3′ (SEQ ID NO: 92): partly modified poly-T oligonucleotide with Z^T (50, 51) (DNA dTdTdTdTlTdTlTdTlTdTlTdTdTdT)
studyTarget: 5′-d(AAAAAAAAAAAAAA)-3′
unitsLabel: °C
measuredResult: 47
--
substance: 5′-d(TTTTTTTTTTTTTT)-3′ (SEQ ID NO: 144): fully modified poly-T oligonucleotide of structure Y (sugars from the 5' end Y13 d1, backbone not given here)
studyTarget: 5′-d(AAAAAAAAAAAAAA)-3′
unitsLabel: °C
measuredResult: 58
--
substance: 5′-d(TTTTTTTTTTTTTT)-3′ (SEQ ID NO: 126): poly-T containing X^T (sugars from the 5' end d5 X4 d5, backbone not given here)
studyTarget: 5′-d(AAAAAAAAAAAAAA)-3′
unitsLabel: °C
measuredResult: 5
--
substance: 5′-d(TTTTTTTTTTTTTT)-3′ (SEQ ID NO: 132): partly modified poly-T with monomer Y (sugars from the 5' end d6 Y2 d6, backbone not given here)
studyTarget: 5′-d(AAAAAAAAAAAAAA)-3′
unitsLabel: °C
measuredResult: 35
--
substance: 5′-d(TTTTTTTTTTTTTT)-3′ (SEQ ID NO: 117): poly-T containing X^T (sugars from the 5' end d7 X1 d6, backbone not given here)
studyTarget: 5′-d(AAAAAAAAAAAAAA)-3′
unitsLabel: °C
measuredResult: 23
--
substance: 5′-d(TTTTTTTTTTTTTT)-3′ (SEQ ID NO: 141): partly modified poly-T with monomer Y (sugars from the 5' end ddddYdYdYdYddd, backbone not given here)
studyTarget: 5′-d(AAAAAAAAAAAAAA)-3′
unitsLabel: °C
measuredResult: 36

###

System: 5′-(AAAAAAAAAAAAAA)-3′
experimentDescription: Tm of duplex (spectrophotometric melting curves)
Type: binding
experimentalSetup: vs RNA 5′-(AAAAAAAAAAAAAA)-3′; 10 mM Na2HPO4 pH 7.0, 100 mM NaCl, 0.1 mM EDTA
X = bicyclic LNA-type nucleotide of structure X in the publication's (LNA marked in bold); Y = bicyclic LNA-type thymidine monomer of structure Y; V = LNA monomer of structure V, bold; d = 2'-deoxy (DNA)
// reported Tm (° C.) Na2HPO4/NaCl/EDTA for each item listed
endpointLabel: Tm (° C.) Na2HPO4/NaCl/EDTA (°C)

substance: 5′-d(TTTTTTTTTTTTTT)-3′ (SEQ ID NO: 120): poly-T containing X^T (sugars from the 5' end d6 X2 d6, backbone not given here)
measuredResult: 23
--
substance: 5′-d(TTTTTTTTTTTTTT)-3′ (SEQ ID NO: 138): partly modified poly-T with monomer Y (sugars from the 5' end d5 Y4 d5, backbone not given here)
measuredResult: 33
--
substance: 5′-d(TTTTTTTTTTTTTT)-3′ (SEQ ID NO: 107): partly modified poly-T with monomer V (sugars from the 5' end d5 V4 d5, backbone not given here)
measuredResult: 31
--
substance: 5′-d(TTTTTTTTTTTTTT)-3′ (SEQ ID NO: 132): partly modified poly-T with monomer Y (sugars from the 5' end d6 Y2 d6, backbone not given here)
measuredResult: 37
--
substance: 5′-d(TTTTTTTTTTTTTT)-3′ (SEQ ID NO: 135): partly modified poly-T with monomer Y (sugars from the 5' end d6 Y1 d1 Y1 d5, backbone not given here)
measuredResult: 36
